Cited source for all entries: patent US20260297542A1

Molecular target: AtPPO1 S305L L361D V365M (SEQ ID NO.133) (Arabidopsis thaliana, UniProt P55826, S305L/V365M/Y361D)
Sequence (P55826 35-537 S305L/Y361D/V365M): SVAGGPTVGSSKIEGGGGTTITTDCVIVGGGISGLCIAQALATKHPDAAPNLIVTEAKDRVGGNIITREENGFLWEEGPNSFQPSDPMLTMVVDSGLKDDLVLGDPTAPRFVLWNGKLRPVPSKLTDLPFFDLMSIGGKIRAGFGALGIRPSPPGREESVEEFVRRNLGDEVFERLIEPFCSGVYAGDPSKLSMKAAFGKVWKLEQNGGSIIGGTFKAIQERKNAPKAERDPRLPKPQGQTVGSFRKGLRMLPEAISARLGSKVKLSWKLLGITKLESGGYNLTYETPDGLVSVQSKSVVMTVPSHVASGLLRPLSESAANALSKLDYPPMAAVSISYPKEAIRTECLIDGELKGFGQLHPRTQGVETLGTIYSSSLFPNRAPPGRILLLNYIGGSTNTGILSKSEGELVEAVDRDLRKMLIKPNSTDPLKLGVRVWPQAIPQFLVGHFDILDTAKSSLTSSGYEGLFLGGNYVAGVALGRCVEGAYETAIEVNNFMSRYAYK
Test: fluorescent Protoporphyrinogen Oxidase assay, crude extract
Format: biochemical
Details: read-out: percentage inhibition
QUANTITY_KIND: inhibition at 0.1 ppm (%)
The response must be a number in % with no trailing unit.

Here's what some known entries look like.
COMPOUND | QUANTITY_KIND | READING
CC(C)N(C)S(=O)(=O)NC(=O)c1cc(-n2c(=O)cc(C(F)(F)F)n(C)c2=O)c(F)cc1Cl [Herbicide E, saflufenacil] | inhibition at 0.1 ppm | 0
C#CCN1C(=O)C(F)(F)Oc2cc(F)c(-n3c(=O)n(C)c(=S)n(C)c3=O)cc21 [Herbicide B, trifludimoxazin] | inhibition at 0.1 ppm | 96

Prompt line: I would be grateful if you could share the reported inhibition at 0.1 ppm for CCOC(=O)[C@]1(C)CC(c2cc(-n3c(=O)n(C)c(=S)n(C)c3=O)c(F)cc2Cl)=NO1 [Herbicide D] .
Response line: 37

Prompt line: Proceed to CCOC(=O)COc1ncccc1Oc1cc(-n2c(=O)cc(C(F)(F)F)n(C)c2=O)c(F)cc1Cl [Herbicide A, epyrifenacil]
Response line: 9

Prompt line: Item: CCOC(=O)C1(C)CC(c2cc(-n3c(=O)cc(C(F)(F)F)n(C)c3=O)c(F)cc2Cl)=NO1 (centres unmarked) [Herbicide C]
Response line: 30
